# credit: PubChem BioAssay (NCI)

tested on: MDA-MB-468 breast; experiment: NCI tumour cell line growth inhibition, 48 h
PROPERTY_MEASURED: log10 of TGI (log10 of the value in µM)
Scale: log10; quantity: TGI; unit before log: µM

>>> measured("COc1cc(N=Nc2cc(Cc3ccc(N(C)C)cc3)c(N)cc2N(C)C)c2ncccc2c1")
-0.21
>>> measured("CCn1cc(C(=O)O)c(=O)c2cc(F)c(N3CCN(S(=O)(=O)c4ccc(Cl)cc4Cl)CC3)cc21")
0.74

Q: Please look up its log10 of TGI: [O]=[Sn]([CH]1CCCCC1)[CH]1CCCCC1
A: -0.60

Q: For the molecule shown here, COc1cc2ncn(-c3cc(OCc4ccccc4C(F)(F)F)c(C(N)=O)s3)c2cc1OC , give the reported log10 of TGI.
A: -0.07

Q: Fill in the blank: the reported log10 of TGI of Cc1cc(N2CCC(N3CCCC3)CC2)nc(/N=C(\N)Nc2ccc(Cl)c(Cl)c2)n1 is ____.
A: 0.44

Q: # query: log10 of TGI of entry N[C@@H]1CCCN(c2c(Br)cnc3[nH]cc(NC(=O)C4CC4)c23)C1
A: 1.56

Q: Entry C#C[C@]1(O)CC[C@H]2[C@@H]3CC=C4c5sc(-c6ccc([N+](=O)[O-])cc6)nc5CC[C@]4(C)[C@H]3CC[C@@]21C : reported log10 of TGI = ?
A: 1.46

Q: Recorded log10 of TGI of CCCCNc1ncnc2c1cnn2-c1ccccc1 , please.
A: 0.88

Q: Reported log10 of TGI for CCN(CC)CCOC(COc1cc(C)cc(C)c1)COc1cc(C)cc(C)c1 : what is it?
A: 0.55

Q: Field request: log10 of TGI | item: [Br][Pb]([c]1ccccc1)([c]1ccccc1)[c]1ccccc1
A: -0.53

---

system: MDA-MB-468 breast; test: NCI tumour cell line growth inhibition, 48 h
PROPERTY_MEASURED: TGI (nM)
Response body: numeric value in nM, unit text excluded.

>>> measured("COc1ccc2nc3ccccc3c(NCCNCCO)c2c1")
1370

# evaluate next
Q: API: value(readout=TGI, system=MDA-MB-468 breast) for record COC(=O)c1c(C)nc(C)c2c1C(=O)C(Br)=C(NCc1ccccc1)C2=O
A: 2750

---

Property: GI50; scope: individual molecules
tested on: MDA-MB-468 breast; experiment: NCI tumour cell line growth inhibition, 48 h

Q: Entry C#C[C@]1(O)CC[C@H]2[C@@H]3CC=C4c5sc(-c6ccc([N+](=O)[O-])cc6)nc5CC[C@]4(C)[C@H]3CC[C@@]21C has what GI50?
A: 12.4 µM

Q: So what's the measured GI50 for this one? CCCCCCCCCCCC1N=C(N)N=C(N)N1c1cccc(Br)c1 (stereo not given)
A: 0.528 µM

Q: Give the measured GI50 of Clc1ccc2c(NCCNc3nc(N4CCOCC4)nc4ccccc34)ccnc2c1 .
A: 1.91 µM

Q: Requested read-out: GI50. Entry: COc1cc2ncn(-c3cc(OCc4ccccc4C(F)(F)F)c(C(N)=O)s3)c2cc1OC
A: 0.0619 µM

Q: Could you share which GI50 value was measured for COc1cccc(C2CC(=O)Nc3c2c(C)nn3-c2nc3ccccc3[nH]2)c1OC (stereo not given) ?
A: 4.11 µM
